Molecular target: Adenosine kinase (Homo sapiens, UniProt P55263)
Sequence (P55263 whole entry): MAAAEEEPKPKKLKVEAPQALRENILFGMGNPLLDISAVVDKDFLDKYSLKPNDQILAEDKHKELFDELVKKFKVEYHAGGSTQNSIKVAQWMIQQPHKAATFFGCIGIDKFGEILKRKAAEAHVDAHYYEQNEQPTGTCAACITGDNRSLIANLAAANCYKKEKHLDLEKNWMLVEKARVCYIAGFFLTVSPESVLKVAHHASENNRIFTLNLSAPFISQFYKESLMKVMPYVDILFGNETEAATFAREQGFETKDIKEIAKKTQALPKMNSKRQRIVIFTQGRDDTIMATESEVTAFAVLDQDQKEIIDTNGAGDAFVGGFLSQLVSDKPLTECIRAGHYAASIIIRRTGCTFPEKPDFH
Experiment: Inhibition of human adenosine kinase
Details: read-out: IC50
assay endpoint: IC50 (µM)

| molecule | IC50, µM |
| --- | --- |
| CCC1(c2ccc(CSc3cc(Cl)ccc3Cl)cc2)Oc2ccccc2-n2cccc2C1=O (racemic) | 14 |

(A) CCC1(c2ccc(CSc3cccc(F)c3)cc2)Oc2ccccc2-n2cccc2C1=O (racemic)
(B) CCC1(c2ccccc2)Oc2ccccc2-n2cccc2C1=O (racemic)
(C) CCC1(c2ccc(COc3cccc(CCN4CCCC4)c3)cc2)Oc2ccccc2-n2cccc2C1=O (racemic)
(D) CCC1(c2ccc(CSc3cccc(C)c3)cc2)Oc2ccccc2-n2cccc2C1=O (racemic)
Output the entries ranked by IC50 from maximum down to minimum. Respond with the label ranking, as requested.
C, B, D, A

(P) CCC1(c2ccc(CSc3c(C)cccc3Cl)cc2)Oc2ccccc2-n2cccc2C1=O (racemic)
(Q) CCC1(c2ccc(CSc3ccc([N+](=O)[O-])cc3)cc2)Oc2ccccc2-n2cccc2C1=O (racemic)
Between P and Q , which one shows the smaller IC50 number? Give the chosen item's label as your response.
P

(A) O=C1c2cccn2-c2ccccc2OC1c1ccccc1 (racemic)
(B) CCC1(c2ccc(CSc3cc(OC)ccc3OC)cc2)Oc2ccccc2-n2cccc2C1=O (racemic)
Given the listed records, identify the one among A and B with higher IC50. Refer to your chosen item by its label in the answer.
A
(A: 100 µM, B: 35 µM)

---

Target: UniProt P55263
Assay: Inhibition of human adenosine kinase
Conditions: read-out: IC50
assay endpoint: IC50 (µM)

Recorded IC50, per entry:
| compound | readout unit | measurement |
| --- | --- | --- |
| CCC1(c2ccc(CSc3ccc(Cl)c(Cl)c3)cc2)Oc2ccccc2-n2cccc2C1=O (racemic) | µM | 10 |
| CCC1(c2ccc(CSc3ccc(I)cc3)cc2)Oc2ccccc2-n2cccc2C1=O (racemic) | µM | 2.5 |
| CCC1(c2ccc(CSc3ccccc3)cc2)Oc2ccccc2-n2cccc2C1=O (racemic) | µM | 1.2 |
| CCC1(c2ccc(CSc3ccccn3)cc2)Oc2ccccc2-n2cccc2C1=O (racemic) | µM | 4.5 |

(a) CCC1(c2ccc(CSc3cccc(OC)c3)cc2)Oc2ccccc2-n2cccc2C1=O (racemic)
(b) CCC1(c2ccc(CSc3ccc(F)cc3)cc2)Oc2ccccc2-n2cccc2C1=O (racemic)
Returns the identifier with the smallest measured IC50 among a and b . Mark your selection by writing its label.
b
(b: 1 µM, a: 12.5 µM)

(I) CCC1(c2ccc(CSc3cccc(C(F)(F)F)c3)cc2)Oc2ccccc2-n2cccc2C1=O (racemic)
(II) CCN(CC)CCc1cccc(OCc2ccc(C3(CC)Oc4ccccc4-n4cccc4C3=O)cc2)c1 (racemic)
Pick the one with the larger IC50: I vs II Field: selected label. Fill in the label of the entry you choose.
II
(II: 200 µM, I: 2.5 µM)

(a) CCC1(c2ccc(CSc3cccc(OC(F)(F)F)c3)cc2)Oc2ccccc2-n2cccc2C1=O (racemic)
(b) O=C1c2cccn2-c2ccccc2OC1c1ccc(CSc2cccc(C(F)(F)F)c2)cc1 (racemic)
Name the one with the greater IC50 value, either a or b as given. // caller expects the label of the chosen entry
b

(A) O=C1c2cccn2-c2ccccc2OC1c1ccc(CSc2ccccc2Cl)cc1 (racemic)
(B) CCC1(c2ccc(COc3cccc(CCO)c3)cc2)Oc2ccccc2-n2cccc2C1=O (racemic)
(C) CCC1(c2cccc(C)c2)Oc2ccccc2-n2cccc2C1=O (racemic)
(D) C#Cc1ccc(SCc2ccc(C3(CC)Oc4ccccc4-n4cccc4C3=O)cc2)cc1 (racemic)
(E) CCC1(c2ccc(CSc3ccc(F)cc3Cl)cc2)Oc2ccccc2-n2cccc2C1=O (racemic)
Ascending sort, IC50. Sort the labels as requested; that list is your answer.
E, A, B, D, C

(I) O=C1c2cccn2-c2ccccc2OC1c1ccc(CSc2ccccc2)cc1 (racemic)
(II) CCC1(c2ccc(CSc3ccc(C#C[Si](C)(C)C)cc3)cc2)Sc2ccccc2-n2cccc2C1=O (racemic)
Which one would you say has the larger IC50 value: I , or II ? State your choice using its label.
I

(1) CCC1(c2ccc(CSc3cccc(Cl)c3)cc2)Oc2ccccc2-n2cccc2C1=O (racemic)
(2) CCC1(c2ccc(CSc3ncccn3)cc2)Oc2ccccc2-n2cccc2C1=O (racemic)
// select label with min value of measured IC50 from [ 1 , 2 ] # respond with the chosen item's label
1

(a) CCC1(c2ccc(CSc3cccc(Cl)c3Cl)cc2)Oc2ccccc2-n2cccc2C1=O (racemic)
(b) CCC1(c2ccc(CSc3ccc(C#C[Si](C)(C)C)cc3)cc2)Oc2ccccc2-n2cccc2C1=O (racemic)
(c) CCC1(c2ccc(COc3ccc(I)cc3Cl)cc2)Oc2ccccc2-n2cccc2C1=O (racemic)
(d) CCC1(c2ccc(CSc3ccccc3Cl)cc2)Sc2ccccc2-n2cccc2C1=O (racemic)
Order by IC50, ascending. As an answer, provide the labels arranged in the order called for.
c, a, d, b

(A) CCC1(c2ccc(CSc3c(Cl)cccc3Cl)cc2)Oc2ccccc2-n2cccc2C1=O (single isomer, unassigned; (+))
(B) CCC1(c2ccc(CSc3ccc(Br)cc3)cc2)Oc2ccccc2-n2cccc2C1=O (racemic)
(C) CCC1(c2ccc(CSc3ccc(OC)cc3)cc2)Oc2ccccc2-n2cccc2C1=O (racemic)
(D) CCC1(c2ccc(CSc3c(Cl)cccc3Cl)cc2)Oc2ccccc2-n2cccc2C1=O (single isomer, unassigned; (-))
Rank items: key IC50, increasing. Your answer should be the labels, listed in the requested order.
B, A, C, D

---

Biological target: Adenosine kinase (Homo sapiens)
Assay: Inhibition of human adenosine kinase
Conditions: read-out: IC50
assay endpoint: IC50 (µM)

| molecule | measurement |
| --- | --- |
| CCC1(c2ccc(CSc3ncc[nH]3)cc2)Oc2ccccc2-n2cccc2C1=O (racemic) | 3.5 |
| CCC1(c2ccc(CSc3ccc(F)cc3F)cc2)Oc2ccccc2-n2cccc2C1=O (racemic) | 10 |

(P) O=C1c2cccn2-c2ccccc2SC1c1ccccc1 (racemic)
(Q) CCC1(c2ccc(CSc3ccccc3F)cc2)Oc2ccccc2-n2cccc2C1=O (racemic)
(R) CCC1(c2ccc(CSc3cnccn3)cc2)Oc2ccccc2-n2cccc2C1=O (racemic)
(S) CCC1(c2ccc(CSc3ccccc3Cl)cc2)Oc2ccccc2-n2cccc2C1=O (racemic)
Exam item: list the entries in increasing order of IC50. API: response body holds the labels in the requested order.
S, Q, R, P
(S: 1 µM, Q: 4.5 µM, R: 7 µM, P: 130 µM)

---

Molecular target: Adenosine kinase (Homo sapiens, UniProt P55263)
Assay: Inhibition of human adenosine kinase
Settings: read-out: IC50
pIC50: −log10 of the molar value.
assay endpoint: pIC50

| compound | pIC50 |
| --- | --- |
| CCC1(c2ccc(CSc3ccc(I)cc3Cl)cc2)Oc2ccccc2-n2cccc2C1=O (racemic) | 5.70 |
| CCC1(c2ccc(CSc3c(F)c(F)cc(F)c3F)cc2)Oc2ccccc2-n2cccc2C1=O (racemic) | 5.10 |

(P) CCC1(c2ccc(CSc3ccc(F)c(Cl)c3)cc2)Oc2ccccc2-n2cccc2C1=O (racemic)
(Q) CCC1(c2ccc(CSc3ccc(Cl)cc3Cl)cc2)Oc2ccccc2-n2cccc2C1=O (racemic)
(R) CCC1(c2ccc(CSc3ccc(OC(F)(F)F)cc3)cc2)Oc2ccccc2-n2cccc2C1=O (racemic)
(S) CCC1(c2ccc(CSc3ccc(I)cc3)cc2)Sc2ccccc2-n2cccc2C1=O (racemic)
(T) CCC1(c2ccc(C)cc2)Oc2ccccc2-n2cccc2C1=O (racemic)
Order the entries by their reported pIC50, beginning at the minimum. Give your ranking as a list of the labels in the requested order.
T, Q, P, R, S

These data points were gathered from ChEMBL document CHEMBL1687916.
